Each recorded value in this set is attributed to ChEMBL document CHEMBL5154873.

Target: Poly [ADP-ribose] polymerase 2 (Homo sapiens, UniProt Q9UGN5)
Sequence (Q9UGN5 whole entry): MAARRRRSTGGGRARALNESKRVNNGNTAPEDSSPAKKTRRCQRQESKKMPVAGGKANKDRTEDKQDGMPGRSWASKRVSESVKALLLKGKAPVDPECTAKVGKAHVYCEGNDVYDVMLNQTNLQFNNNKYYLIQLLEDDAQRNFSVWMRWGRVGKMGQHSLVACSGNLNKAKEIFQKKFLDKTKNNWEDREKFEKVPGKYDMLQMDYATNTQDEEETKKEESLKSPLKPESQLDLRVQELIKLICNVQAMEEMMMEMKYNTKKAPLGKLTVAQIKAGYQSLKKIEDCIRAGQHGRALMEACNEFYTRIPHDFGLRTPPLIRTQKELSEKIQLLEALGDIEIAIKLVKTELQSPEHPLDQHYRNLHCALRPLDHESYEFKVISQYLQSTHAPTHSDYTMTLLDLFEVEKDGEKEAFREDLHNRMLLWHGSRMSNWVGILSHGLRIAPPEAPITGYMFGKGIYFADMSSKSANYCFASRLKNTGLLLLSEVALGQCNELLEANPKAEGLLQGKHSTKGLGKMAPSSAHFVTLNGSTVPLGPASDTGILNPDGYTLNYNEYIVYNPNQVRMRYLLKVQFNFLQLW
Measured Parameter: IC50 (nM)
Please respond with the number in nM and leave the unit unwritten.

query: Which IC50 is reported with Poly [ADP-ribose] polymerase 2 (Homo sapiens, UniProt Q9UGN5) for this entry: `O=C(COc1ccc2c(c1)CCCN2C(=O)CCl)NCCCCCCCCCC(=O)N1CCN(C(=O)c2cc(Cc3n[nH]c(=O)c4ccccc34)ccc2F)CC1` ?
result: 0.32

###

Biological target: Poly [ADP-ribose] polymerase 1 (Homo sapiens)
Sequence (P09874 whole entry): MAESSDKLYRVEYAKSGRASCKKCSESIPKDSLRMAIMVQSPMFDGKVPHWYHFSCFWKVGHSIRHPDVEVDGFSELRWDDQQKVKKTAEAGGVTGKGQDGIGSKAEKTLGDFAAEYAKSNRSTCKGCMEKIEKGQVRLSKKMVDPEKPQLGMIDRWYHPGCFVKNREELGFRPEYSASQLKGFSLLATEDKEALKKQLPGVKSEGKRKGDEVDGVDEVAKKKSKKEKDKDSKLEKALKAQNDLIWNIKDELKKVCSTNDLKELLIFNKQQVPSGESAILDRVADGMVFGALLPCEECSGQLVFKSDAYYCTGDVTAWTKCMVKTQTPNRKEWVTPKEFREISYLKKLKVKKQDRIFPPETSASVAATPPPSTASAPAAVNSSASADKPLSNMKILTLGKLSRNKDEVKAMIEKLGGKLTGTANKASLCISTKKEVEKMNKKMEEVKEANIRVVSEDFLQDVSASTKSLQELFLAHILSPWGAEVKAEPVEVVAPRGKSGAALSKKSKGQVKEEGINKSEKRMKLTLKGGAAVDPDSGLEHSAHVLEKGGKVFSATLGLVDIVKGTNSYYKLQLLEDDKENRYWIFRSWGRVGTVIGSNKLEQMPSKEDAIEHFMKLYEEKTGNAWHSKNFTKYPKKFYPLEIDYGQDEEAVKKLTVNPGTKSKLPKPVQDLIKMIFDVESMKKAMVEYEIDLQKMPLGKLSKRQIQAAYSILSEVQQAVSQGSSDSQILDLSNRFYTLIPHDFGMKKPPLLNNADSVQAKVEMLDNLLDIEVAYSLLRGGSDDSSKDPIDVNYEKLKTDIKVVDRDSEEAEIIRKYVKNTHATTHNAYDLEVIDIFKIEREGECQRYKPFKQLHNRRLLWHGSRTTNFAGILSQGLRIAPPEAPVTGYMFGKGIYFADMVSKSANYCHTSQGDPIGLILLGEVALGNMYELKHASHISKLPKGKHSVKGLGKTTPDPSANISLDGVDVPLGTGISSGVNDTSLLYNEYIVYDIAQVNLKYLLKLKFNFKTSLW
Measured Parameter: IC50 (nM)
Please respond with the number in nM and leave the unit unwritten.

query: Need IC50, item `O=C(COc1ccc2c(c1)CCCN2C(=O)CCl)NCCCCCCCCCC(=O)N1CCN(C(=O)c2cc(Cc3n[nH]c(=O)c4ccccc34)ccc2F)CC1`
result: 2.74
